Recorded IC50, one value per entry.
Subject Of Test: hKIF18A (1-374) (Homo sapiens (Human), UniProt Q8NI77)
Sequence (Q8NI77 whole entry, looked up): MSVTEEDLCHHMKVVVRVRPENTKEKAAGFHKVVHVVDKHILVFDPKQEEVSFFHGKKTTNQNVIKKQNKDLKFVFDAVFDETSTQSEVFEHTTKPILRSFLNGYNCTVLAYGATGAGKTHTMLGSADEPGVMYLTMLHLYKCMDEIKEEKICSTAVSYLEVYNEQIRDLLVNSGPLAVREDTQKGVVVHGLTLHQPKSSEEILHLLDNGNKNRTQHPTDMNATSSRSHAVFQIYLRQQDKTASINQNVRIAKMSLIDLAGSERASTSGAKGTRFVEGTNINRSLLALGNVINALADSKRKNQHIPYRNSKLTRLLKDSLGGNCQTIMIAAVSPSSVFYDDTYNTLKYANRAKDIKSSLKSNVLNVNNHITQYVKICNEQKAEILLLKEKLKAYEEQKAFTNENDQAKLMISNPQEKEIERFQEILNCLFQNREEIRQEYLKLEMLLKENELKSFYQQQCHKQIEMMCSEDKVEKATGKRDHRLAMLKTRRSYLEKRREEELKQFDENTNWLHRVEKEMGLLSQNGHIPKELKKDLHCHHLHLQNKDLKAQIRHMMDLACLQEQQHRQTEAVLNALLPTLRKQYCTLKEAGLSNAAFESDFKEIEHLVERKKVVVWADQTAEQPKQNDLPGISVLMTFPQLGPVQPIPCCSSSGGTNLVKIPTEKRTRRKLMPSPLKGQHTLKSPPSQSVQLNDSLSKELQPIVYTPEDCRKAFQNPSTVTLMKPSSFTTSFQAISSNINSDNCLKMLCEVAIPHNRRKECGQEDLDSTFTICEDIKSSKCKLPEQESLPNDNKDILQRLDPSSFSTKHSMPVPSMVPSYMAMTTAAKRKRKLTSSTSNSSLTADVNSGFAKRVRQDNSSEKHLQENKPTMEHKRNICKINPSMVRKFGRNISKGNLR
Sequence (Q2XVP4 whole entry partner, looked up): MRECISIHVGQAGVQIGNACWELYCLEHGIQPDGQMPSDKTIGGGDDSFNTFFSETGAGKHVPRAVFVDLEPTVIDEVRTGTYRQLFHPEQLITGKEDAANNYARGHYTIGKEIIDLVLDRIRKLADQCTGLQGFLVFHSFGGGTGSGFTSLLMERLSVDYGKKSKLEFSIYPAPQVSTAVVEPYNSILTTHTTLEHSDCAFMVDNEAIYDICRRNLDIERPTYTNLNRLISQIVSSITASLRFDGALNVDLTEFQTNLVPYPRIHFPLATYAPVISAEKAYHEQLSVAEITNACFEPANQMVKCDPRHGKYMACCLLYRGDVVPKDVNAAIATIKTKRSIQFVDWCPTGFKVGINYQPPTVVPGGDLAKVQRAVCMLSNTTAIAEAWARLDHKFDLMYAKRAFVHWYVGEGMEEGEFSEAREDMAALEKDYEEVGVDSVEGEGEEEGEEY
Sequence (P02554 whole entry partner, looked up): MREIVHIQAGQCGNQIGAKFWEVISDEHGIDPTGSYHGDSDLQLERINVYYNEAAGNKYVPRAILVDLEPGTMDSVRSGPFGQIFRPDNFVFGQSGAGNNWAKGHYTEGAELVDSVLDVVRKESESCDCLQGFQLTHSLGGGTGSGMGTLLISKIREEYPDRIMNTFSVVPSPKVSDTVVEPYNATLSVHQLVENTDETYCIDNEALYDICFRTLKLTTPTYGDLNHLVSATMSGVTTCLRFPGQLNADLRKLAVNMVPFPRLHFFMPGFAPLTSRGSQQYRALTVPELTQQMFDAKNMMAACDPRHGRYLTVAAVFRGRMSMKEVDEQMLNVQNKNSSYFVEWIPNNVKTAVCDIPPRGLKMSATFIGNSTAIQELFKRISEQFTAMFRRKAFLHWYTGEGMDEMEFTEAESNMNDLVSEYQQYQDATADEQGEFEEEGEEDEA
Assay Comment: Inhibition of KIF18A microtubule-dependent ATPase activity (ADP-Glo)
Conditions Used: KIF18A microtubule-dependent ATPase activity, biochemical assay
Property: IC50

INSERT INTO measurements (compound, property, obs_value) VALUES
  ('CS(=O)(=O)Nc1ccc2c(c1)C1(CCCC1)CN2C(=O)c1cccc(S(=O)(=O)N2CCC(F)(F)CC2)c1 [Compound 18]', 'IC50', '0.079 µM'),
  ('CC1(C(O)c2cccc(C(=O)N3CC4(CCC5(CC5)CC4)c4cc(NS(C)(=O)=O)ccc43)c2)CCC1 (stereo not shown) [Compound 354]', 'IC50', '0.014 µM'),
  ('CS(=O)(=O)Nc1ccc2c(c1)C1(CCC3(CC3)CC1)CN2C(=O)c1cccc([C@@H](O)C2CCCC2)n1 (single isomer, unassigned) [Compound 317a]', 'IC50', '0.011 µM'),
  ('CC1CCC2(C1)CN(C(=O)c1cccc(S(=O)(=O)NC(C)(C)C)c1)c1ccc(NS(C)(=O)=O)cc12 (stereo not shown) [Compound 252]', 'IC50', '0.034 µM'),
  ('COCCS(=O)(=O)Nc1ccc2c(c1)C1(CCC3(CC3)CC1)CN2C(=O)c1cccc(S(=O)(=O)NC(C)(C)C)c1 [Compound 300]', 'IC50', '0.031 µM'),
  ('CS(=O)(=O)Nc1ccc2c(c1)C1(CCCCC1)CN2C(=O)c1cccc(S(=O)(=O)NC2CC2)c1 [Compound 46]', 'IC50', '0.12 µM'),
  ('CCS(=O)(=O)Nc1ccc2c(c1)[C@]1(CC[C@H](C(F)F)CC1)CN2C(=O)c1cccc(S(=O)(=O)NC(C)(C)C)c1 [Compound 333b]', 'IC50', '0.033 µM');

* * *

Subject Of Test: hKIF18A (1-374) (Homo sapiens (Human), UniProt Q8NI77)
Assay Comment: Inhibition of KIF18A microtubule-dependent ATPase activity (ADP-Glo)
Conditions Used: KIF18A microtubule-dependent ATPase activity, biochemical assay
pIC50: −log10 of the molar value.
Recorded pIC50, one value per entry.
Property: pIC50

INSERT INTO results (molecule, subject_of_test, property, obs_value) VALUES
  ('C=C1CCC2(CC1)CN(C(=O)c1cccc(S(=O)(=O)NC(C)(C)C)c1)c1ccc(NS(C)(=O)=O)cc12 [Compound 324]', 'hKIF18A (1-374) (Homo sapiens (Human), UniProt Q8NI77)', 'pIC50', 7.68),
  ('O=C(c1cccc(S(=O)(=O)N2CCCCC2)c1)N1CC2(CCC3(CC3)CC2)c2ccccc21 [Compound 6]', 'hKIF18A (1-374) (Homo sapiens (Human), UniProt Q8NI77)', 'pIC50', 6.24),
  ('CC1CCN(S(=O)(=O)c2cccc(C(=O)N3CC4(CCC5(CC5)CC4)c4cc(NS(C)(=O)=O)ccc43)c2)C1 (stereo not drawn) [Compound 249]', 'hKIF18A (1-374) (Homo sapiens (Human), UniProt Q8NI77)', 'pIC50', 8.05),
  ('CC1=CCC2(CC1)CN(C(=O)c1cccc(S(=O)(=O)NC(C)(C)C)c1)c1ccc(NS(C)(=O)=O)cc12 (stereo not drawn) [Compound 295]', 'hKIF18A (1-374) (Homo sapiens (Human), UniProt Q8NI77)', 'pIC50', 7.42),
  ('CS(=O)(=O)Nc1ccc2c(c1)C1(CCC3(CC3)CC1)CN2C(=O)c1cccc(S(=O)(=O)NC2C=CCCC2)c1 (stereo not drawn) [Compound 196]', 'hKIF18A (1-374) (Homo sapiens (Human), UniProt Q8NI77)', 'pIC50', 8.00),
  ('CS(=O)(=O)Nc1ccc2c(c1)C1(CCCCC1)CN2C(=O)c1cccc(S(=N)(=O)C2CCCC2)c1 (stereo not drawn) [Compound 49]', 'hKIF18A (1-374) (Homo sapiens (Human), UniProt Q8NI77)', 'pIC50', 6.89),
  ('CC(C)(C)NS(=O)(=O)c1cc(C(=O)N2CC3(CCCCC3)c3cc(NS(C)(=O)=O)ccc32)ccc1F [Compound 96]', 'hKIF18A (1-374) (Homo sapiens (Human), UniProt Q8NI77)', 'pIC50', 7.00),
  ('CCC(CO)NS(=O)(=O)c1cccc(C(=O)N2CC3(CCC4(CC4)CC3)c3cc(NS(C)(=O)=O)ccc32)c1 (stereo not drawn) [Compound 208]', 'hKIF18A (1-374) (Homo sapiens (Human), UniProt Q8NI77)', 'pIC50', 7.19),
  ('CC(C)(C)[C@H](O)c1ccc(C(=O)N2CC3(CCC4(CC4)CC3)c3cc(NS(=O)(=O)CCO)ccc32)o1 (single isomer, unassigned) [Compound 371b]', 'hKIF18A (1-374) (Homo sapiens (Human), UniProt Q8NI77)', 'pIC50', 7.40),
  ('C=C1CN(S(=O)(=O)c2cccc(C(=O)N3CC4(CCC5(CC5)CC4)c4cc(NS(C)(=O)=O)ccc43)c2)C1 [Compound 258]', 'hKIF18A (1-374) (Homo sapiens (Human), UniProt Q8NI77)', 'pIC50', 7.85),
  ('CS(=O)(=O)Nc1ccc2c(c1)C1(CCC3(CC3)CC1)CN2C(=O)c1cccc(C(O)C2CCCC2)c1 (stereo not drawn) [Compound 165]', 'hKIF18A (1-374) (Homo sapiens (Human), UniProt Q8NI77)', 'pIC50', 7.82),
  ('CS(=O)(=O)Nc1ccc2c(c1)C1(CCC3(CC3)CC1)CN2C(=O)c1cccc(S(=O)(=O)NC2CC=CC2)c1 [Compound 172]', 'hKIF18A (1-374) (Homo sapiens (Human), UniProt Q8NI77)', 'pIC50', 8.26),
  ('CC1CCC2(CC1)CN(C(=O)c1cccc(S(=O)(=O)N3CCC(F)(F)CC3)c1)c1ccc(Br)cc12 (stereo not drawn) [Compound 15]', 'hKIF18A (1-374) (Homo sapiens (Human), UniProt Q8NI77)', 'pIC50', 6.11),
  ('O=C(c1ccc(C(O)C2CCCC2)o1)N1CC2(CCC3(CC3)CC2)c2cc(NS(=O)(=O)CCO)ccc21 (single isomer, unassigned) [Compound 368b]', 'hKIF18A (1-374) (Homo sapiens (Human), UniProt Q8NI77)', 'pIC50', 8.46),
  ('CC1(NS(=O)(=O)c2cccc(C(=O)N3CC4(CCC5(CC5)CC4)c4cc(NS(C)(=O)=O)ccc43)c2)CC1 [Compound 216]', 'hKIF18A (1-374) (Homo sapiens (Human), UniProt Q8NI77)', 'pIC50', 8.03),
  ('CS(=O)(=O)Nc1ccc2c(c1)C1(CCC3(CC3)CC1)CN2C(=O)c1ccc(F)c(S(=O)(=O)NC23CC(C2)C3)c1 [Compound 337]', 'hKIF18A (1-374) (Homo sapiens (Human), UniProt Q8NI77)', 'pIC50', 8.06),
  ('CS(=O)(=O)Nc1ccc2c(c1)C1(CCC3(CC3)CC1)CN2C(=O)c1cccc(S(=O)(=O)NC(CO)C2CC2)c1 (stereo not drawn) [Compound 214]', 'hKIF18A (1-374) (Homo sapiens (Human), UniProt Q8NI77)', 'pIC50', 7.10),
  ('CC(C)(C)NS(=O)(=O)c1ccc(C(=O)N2CC3(CCCCC3)c3cc(NS(C)(=O)=O)ccc32)s1 [Compound 60]', 'hKIF18A (1-374) (Homo sapiens (Human), UniProt Q8NI77)', 'pIC50', 5.92),
  ('CS(=O)(=O)Nc1ccc2c(c1)C1(CCC3(CC3)CC1)CN2C(=O)c1csc(S(=O)(=O)N2CC3(CCC3)C2)c1 [Compound 279]', 'hKIF18A (1-374) (Homo sapiens (Human), UniProt Q8NI77)', 'pIC50', 8.20),
  ('CS(=O)(=O)Nc1ccc2c(c1)C1(CCC3(CC3)CC1)CN2C(=O)c1cccc(S(=O)(=O)NC2CC(O)C2)c1 (stereo not drawn) [Compound 218]', 'hKIF18A (1-374) (Homo sapiens (Human), UniProt Q8NI77)', 'pIC50', 7.00),
  ('CS(=O)(=O)Nc1ccc2c(c1)C1(CCC3(CC3)CC1)CN2C(=O)c1csc(S(=O)(=O)N2CCC(F)(F)CC2)c1 [Compound 281]', 'hKIF18A (1-374) (Homo sapiens (Human), UniProt Q8NI77)', 'pIC50', 7.89),
  ('CP(=O)(CC1CCC1)c1cccc(C(=O)N2CC3(CCC4(CC4)CC3)c3cc(NS(C)(=O)=O)ccc32)c1 (stereo not drawn) [Compound 362]', 'hKIF18A (1-374) (Homo sapiens (Human), UniProt Q8NI77)', 'pIC50', 7.46),
  ('CS(=O)(=O)Nc1ccc2c(c1)C1(CCC3(CC3)CC1)CN2C(=O)c1cccc(S(=O)(=O)NC2CCCCC2)c1 [Compound 180]', 'hKIF18A (1-374) (Homo sapiens (Human), UniProt Q8NI77)', 'pIC50', 7.96),
  ('CS(=O)(=O)Nc1ccc2c(c1)C1(CCC3(CC3)CC1)CN2C(=O)c1cccc(S(=O)(=O)CC2CCC2)c1 [Compound 335]', 'hKIF18A (1-374) (Homo sapiens (Human), UniProt Q8NI77)', 'pIC50', 8.03),
  ('CC1(NS(=O)(=O)c2cccc(C(=O)N3CC4(CCC5(CC5)CC4)c4cc(NS(C)(=O)=O)ccc43)c2)CCC1 [Compound 182]', 'hKIF18A (1-374) (Homo sapiens (Human), UniProt Q8NI77)', 'pIC50', 8.14),
  ('CC1CN(S(=O)(=O)c2cccc(C(=O)N3CC4(CCCCC4)c4cc(NS(C)(=O)=O)ccc43)c2)CCO1 (stereo not drawn) [Compound 107]', 'hKIF18A (1-374) (Homo sapiens (Human), UniProt Q8NI77)', 'pIC50', 6.33),
  ('CC(C)(C)NS(=O)(=O)c1cc(F)cc(C(=O)N2CC3(CCCCC3)c3cc(NS(C)(=O)=O)ccc32)c1 [Compound 95]', 'hKIF18A (1-374) (Homo sapiens (Human), UniProt Q8NI77)', 'pIC50', 6.77);
